- TARGET UNDER TEST: Muscarinic 1 (Homo sapiens)
- Sequence (P11229 whole entry): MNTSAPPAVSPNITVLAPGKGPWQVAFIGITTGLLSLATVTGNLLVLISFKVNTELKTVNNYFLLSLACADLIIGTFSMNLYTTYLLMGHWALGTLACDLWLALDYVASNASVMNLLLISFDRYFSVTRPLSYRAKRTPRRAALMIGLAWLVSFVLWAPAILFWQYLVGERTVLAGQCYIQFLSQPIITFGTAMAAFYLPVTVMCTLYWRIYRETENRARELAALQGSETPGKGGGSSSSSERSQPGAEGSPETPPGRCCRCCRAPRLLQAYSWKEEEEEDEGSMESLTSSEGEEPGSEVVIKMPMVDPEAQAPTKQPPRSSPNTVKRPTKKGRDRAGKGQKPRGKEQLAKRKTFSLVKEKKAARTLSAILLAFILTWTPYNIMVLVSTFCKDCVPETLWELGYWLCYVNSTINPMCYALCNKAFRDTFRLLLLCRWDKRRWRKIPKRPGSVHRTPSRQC
- TEST DETAILS: FLIPR calcium assay, muscarinic 1
- STATED CONDITIONS: vs EC80 of agonist; read-out: Muscarinic 1, Antagonist IC50
MEASURED ENDPOINT: IC50

Form field: reported IC50 of Cc1cc(Oc2nccc3occc23)ccc1-c1c(C)ncc2nccn12
4.9 µM

What would you report for Cc1cc(Oc2nccc3occc23)ccc1-n1c(C)nc2cnccc21 ?
> 10 µM

Next entry: Cc1cc(Oc2nccc3occc23)ccc1-c1c(C)ncnc1C
> 10 µM

// next record Cc1cc(Oc2nccc3occc23)ccc1-c1c(C)cnnc1C
> 10 µM

* * *

- TARGET UNDER TEST: Mu Opioid (Homo sapiens)
- Sequence (P35372 whole entry, the tested form may be a part): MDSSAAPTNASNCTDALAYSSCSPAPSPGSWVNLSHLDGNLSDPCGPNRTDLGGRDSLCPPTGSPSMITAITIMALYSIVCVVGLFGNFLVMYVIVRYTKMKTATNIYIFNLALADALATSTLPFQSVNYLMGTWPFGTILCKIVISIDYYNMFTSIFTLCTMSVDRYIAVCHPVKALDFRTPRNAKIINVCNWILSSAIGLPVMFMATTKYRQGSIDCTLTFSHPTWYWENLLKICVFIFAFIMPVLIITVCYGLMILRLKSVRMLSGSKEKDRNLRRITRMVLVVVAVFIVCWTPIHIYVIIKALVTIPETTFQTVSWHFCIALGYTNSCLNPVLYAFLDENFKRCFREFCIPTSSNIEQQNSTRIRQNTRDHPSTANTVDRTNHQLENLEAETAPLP
- TEST DETAILS: Beta arrestin enzyme fragment complementation assay, mu opioid
- STATED CONDITIONS: vs EC80 of agonist; read-out: Mu Opioid, Antagonist IC50
I'd be grateful if you could share measured IC50 for these entries.

Fill in: IC50 of Cc1cc(Oc2nccc3occc23)ccc1-c1c(C)ncnc1C [PF-8871] is ___
> 10 µM

What do we get for Cc1cc(Oc2nccc3occc23)ccc1-c1c(C)ncc2nccn12 [PF-6142] ?
8.68 µM

Try this compound next: Cc1cc(Oc2nccc3occc23)ccc1-c1c(C)cnnc1C [PF-1119]
> 10 µM

Okay, and Cc1cc(Oc2nccc3occc23)ccc1-n1c(C)nc2cnccc21 [PF-8294] ?
> 10 µM

* * *

- TEST DETAILS: Rat pharmacokinetic studies
- Format: in vivo, Wistar Hannover rat
- STATED CONDITIONS: male, Wistar Hannover, plasma, iv
MEASURED ENDPOINT: clearance (mL/min/kg)
# unit: mL/min/kg | format: bare number

Look at this compound and give its reported clearance. Cc1n[nH]c(=O)c(C)c1-c1ccc(Oc2nccc3occc23)cc1F
20.8

Now this one: Cc1cc(Oc2nccc3occc23)ccc1-c1c(C)ncc2nccn12
42.5

Can you handle Oc1cc2c(cc1O)C(c1ccccc1)CNCC2 (stereo not drawn) [SKF-38393, reference compound] next?
245

* * *

- TEST DETAILS: Equilibrium dialysis, unbound fraction in monkey plasma
- Assay type: in vitro ADME
- STATED CONDITIONS: read-out: unbound fraction in monkey plasma (fu,p)
Kindly state fraction unbound for each of the entries shown.
// return a plain number; no unit text

Entry NC[C@@H]1O[C@H](C23CC4CC(CC(C4)C2)C3)Cc2c1ccc(O)c2O [A-77636, reference compound] has what fraction unbound?
0.044

Also Cc1n[nH]c(=O)c(C)c1-c1ccc(Oc2nccc3occc23)cc1F , if possible.
0.04

* * *

# pIC50 per entry for Human PDE3A1 (Homo sapiens)
Give only the number. pIC50 is defined as minus log10 of concentration in molar units.

Query (compound): Cc1cc(Oc2nccc3occc23)ccc1-c1c(C)cnnc1C ; field requested: pIC50
5.04

Thanks! And Cc1cc(Oc2nccc3occc23)ccc1-c1c(C)ncc2nccn12 ?
5.29

* * *

Could you please report measured Efficacy hD5R cAMP for the items listed next?
- TARGET UNDER TEST: human dopamine D5 receptor (hD5R) (Homo sapiens, UniProt P21918)
- Sequence (P21918 whole entry): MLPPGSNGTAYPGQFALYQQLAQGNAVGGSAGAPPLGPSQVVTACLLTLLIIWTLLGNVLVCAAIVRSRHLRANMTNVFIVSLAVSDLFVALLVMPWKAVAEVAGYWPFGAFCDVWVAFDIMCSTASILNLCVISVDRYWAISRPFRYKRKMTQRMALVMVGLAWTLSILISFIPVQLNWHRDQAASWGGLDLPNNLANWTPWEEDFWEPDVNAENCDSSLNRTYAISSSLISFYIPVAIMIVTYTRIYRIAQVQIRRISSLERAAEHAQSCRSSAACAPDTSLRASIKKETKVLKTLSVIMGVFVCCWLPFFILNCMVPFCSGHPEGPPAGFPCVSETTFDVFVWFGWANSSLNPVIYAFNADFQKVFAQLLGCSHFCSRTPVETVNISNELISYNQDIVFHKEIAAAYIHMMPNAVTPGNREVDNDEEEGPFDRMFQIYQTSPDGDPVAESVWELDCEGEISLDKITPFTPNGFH
- TEST DETAILS: hD5R cAMP HTRF assay (stable HEK293)
- STATED CONDITIONS: percent of maximum response of 5 µM dopamine
Kindly provide the number alone.

# Efficacy hD5R cAMP lookup, item Oc1cc2c(c(Cl)c1O)CCNCC2c1ccccc1 (stereo not drawn) [SKF-81297, reference compound]
100

Further, for Cn1nccc1-c1ccc(Oc2nccc3occc23)cc1 ?
53

// next record Cc1cc(Oc2nccc3occc23)ccc1-c1c(C)ncc2nccn12
89

Also need Cc1cc(Oc2nccc3occc23)ccc1-c1c(C)ncnc1C , thanks.
90

Okay, and Cc1n[nH]c(=O)c(C)c1-c1ccc(Oc2nccc3occc23)cc1F ?
99

Similarly, NC[C@@H]1O[C@H](C23CC4CC(CC(C4)C2)C3)Cc2c1ccc(O)c2O [A-77636, reference compound] ?
114

Now this one: Cc1cc(Oc2nccc3occc23)ccc1-c1c(C)cnnc1C
59

Next compound: Cc1cc(Oc2cccc(O)c2O)ccc1-c1c(C)ncnc1C
105

Repeat with Cc1cc(Oc2nccc3occc23)ccc1-n1c(C)nc2cnccc21
83
